Reported fold increase in Dox EC50 is given for each of the following molecules.
test system: MRP1 cells, doxorubicin viability shift, 10 uM compound; assay: viability protection against doxorubicin, MRP-1 line – cell-based, doxorubicin EC50 shift, dose response (AID 844)
The response must contain the number and no unit.

• C/C(=N\NC(=O)c1ccc(Cn2cc([N+](=O)[O-])cn2)o1)c1cccc(NC(=O)c2cccnc2)c1 = 0.73
• O=C(CSc1ncn[nH]1)NC12CC3CC(CC(C3)C1)C2 = 0.64
• Cc1cc(C)n(-c2nc3ccccc3nc2Nc2ccc3c(c2)OCO3)n1 = 0.75
• Cc1cccc(NC(=O)CSc2nc(-c3ccccc3)c(C#N)c(=O)[nH]2)c1C = 1.24

Consider the additional molecule presented here.
In one line, give reported fold increase in Dox EC50 of the entry Cc1cccc(NC(=O)CC2SC(=O)N(c3ccccc3)C2=O)c1 (stereo not given) .
0.95
